Each record here notes measured GI50.
tested on: MOLT-4 leukemia; experiment: NCI tumour cell line growth inhibition, 48 h

# chemical-string, GI50
measured = [
    ("Cc1c[n+](Cc2ccc3ccccc3c2)cn1Cc1ccc2ccccc2c1", "1.7 µM"),
    ("CCN(CC)CC(C)(C)C(=O)/C=C/c1ccc(Cl)c(Cl)c1", "2.37 µM"),
    ("Cc1cc(NC(=O)c2ccc(C)c(Nc3nccc(-c4cccnc4)n3)c2)cc(-n2cnc(C)c2)c1", "15.6 µM"),
    ("Cc1[nH][nH]c(=O)c1C=Nc1ccc(-c2nc3ccccc3[nH]2)cc1", "52 µM"),
    ("CCOC(=O)N1CCN(C(=O)c2ccc(C(F)(F)F)nc2Nc2cc(Cl)ccc2C)CC1", "6.63 µM"),
]

###

Here, each record is paired with measured TGI data.
test system: CCRF-CEM leukemia; assay: NCI tumour cell line growth inhibition, 48 h
quantity-name: TGI

# molecule, quantity-name, measured
rows = [
    ("O=C(CSc1nnc(-c2ccccc2NC(=O)C(F)(F)F)c(=O)[nH]1)NC(=O)Nc1ccccc1", "TGI", "> 100 µM"),
    ("COc1ccc(C2C(C#N)=C(N)OC3=C2COc2ccc(F)cc23)cc1OC (configuration not stated)", "TGI", "> 100 µM"),
    ("Cc1ccc(C2CC(c3ccco3)=NN2c2ccccc2)o1 (configuration not stated)", "TGI", "> 100 µM"),
    ("O=C1NC(=O)C(CCO)(c2ccccc2)C(=O)N1", "TGI", "> 100 µM"),
    ("COc1ccc(-n2cc(-c3ccc(Cl)c(Cl)c3)nc2SCc2cccc(C#N)c2)cc1", "TGI", "> 100 µM"),
    ("COC(=O)C1OC(Oc2cc(O)c3c(=O)cc(-c4ccc(O)cc4)oc3c2)C(O)C(O)C1O (configuration not stated)", "TGI", "> 100 µM"),
    ("CC(C)CC1[C@@H](OCc2ccccc2)COS(=O)N1Cc1ccccc1 (some centres not stated)", "TGI", "> 100 µM"),
    ("Nc1ccncc1/C=C1/C(=O)Nc2ccccc21", "TGI", "> 100 µM"),
    ("CCN(CC)CC(C)(C)C(=O)/C=C/c1ccc(Cl)c(Cl)c1", "TGI", "4.22 µM"),
    ("CSC1=C(SC)SC(=C2SC3=C(SC(=C4SCCS4)S3)S2)S1", "TGI", "> 100 µM"),
    ("O=C(CN(C1CCCCC1)C1CCCCC1)Nc1ccc(S(=O)(=O)c2ccc(NC(=O)CN(C3CCCCC3)C3CCCCC3)cc2)cc1", "TGI", "1.28 µM"),
    ("CCOC(=O)C1=C(Nc2cccc(OC)c2)OCC1=O", "TGI", "> 100 µM"),
    ("O=C1CSC(Cc2nc3ccccc3[nH]2)=N1", "TGI", "> 94 µM"),
    ("CCN1CCN(c2ccc(Nc3ccnc4ccc5nn(C)nc5c34)cc2)CC1", "TGI", "> 100 µM"),
    ("CC(=O)OCC1OC(Nc2ncc(-c3ccc(C)cc3)s2)C(OC(C)=O)C(OC(C)=O)C1OC(C)=O (configuration not stated)", "TGI", "> 100 µM"),
    ("Cc1cccc(/C=N/NC(=S)NCCc2ccccn2)n1", "TGI", "> 72.9 µM"),
    ("c1cc(-c2ncc(-c3ccc4c(c3)CCCO4)o2)ccn1", "TGI", "29.3 µM"),
    ("Cc1[nH][nH]c(=O)c1C=Nc1ccc(-c2nc3ccccc3[nH]2)cc1", "TGI", "> 100 µM"),
    ("COc1ccc2c(c1C)C(=O)C(O)(CC=C(C)C)O2 (configuration not stated)", "TGI", "> 100 µM"),
    ("COc1ccc2c3c1O[C@H]1C(O)CCC4(O)[C@@H](C2)NCC[C@]314 (some centres not stated)", "TGI", "> 100 µM"),
    ("CC(=O)OCC1OC([S-])C(OC(C)=O)C(OC(C)=O)C1OC(C)=O.CC[PH+](CC)CC.CC[PH+](CC)CC.[Au].[Au] (configuration not stated)", "TGI", "0.277 µM"),
    ("N#CC(C#N)=c1[nH]c2cccc3c2-c2c(cccc2c3=C(C#N)C#N)[nH]1", "TGI", "> 100 µM"),
]

###

test system: SK-OV-3 ovarian; assay: NCI tumour cell line growth inhibition, 48 h
quantity-name: TGI

# compound, quantity-name, measured
measured = [
    ("CCN1c2nc3ccccc3nc2N(CC)c2nc3ccccc3nc21", "TGI", "> 100 µM"),
    ("O=C(O)c1ccc(NNc2cc(=O)[nH]c(=O)[nH]2)cc1", "TGI", "> 100 µM"),
    ("O=C(CC(c1ccccc1)N1CCCCC1)c1ccccc1 (stereo unspecified)", "TGI", "31.4 µM"),
    ("O=C(CSc1nnc(-c2ccccc2NC(=O)C(F)(F)F)c(=O)[nH]1)NC(=O)Nc1ccccc1", "TGI", "> 100 µM"),
    ("COc1ccc2c(c1)CCc1c-2[nH]c2ccc(OC)cc12", "TGI", "> 100 µM"),
    ("COc1ccc(-c2cc(-c3cccn3C)c(C#N)c(N)n2)cc1OC", "TGI", "> 100 µM"),
    ("CC(=O)OCC1OC(Nc2ncc(-c3ccc(C)cc3)s2)C(OC(C)=O)C(OC(C)=O)C1OC(C)=O (stereo unspecified)", "TGI", "> 100 µM"),
    ("COc1cccc(OC)c1/C=C1\\OC(=O)c2cccc(OC)c21", "TGI", "> 100 µM"),
    ("CC(C)c1ccccc1S(=O)c1ccccc1C(C)(C)O (stereo unspecified)", "TGI", "> 100 µM"),
    ("N#CC(NNC(=O)Cc1ccccc1)c1ccccc1O (stereo unspecified)", "TGI", "> 85.4 µM"),
    ("COc1ccc2c(c1)CN1C(=N2)CSC1c1cc([N+](=O)[O-])ccc1Cl (stereo unspecified)", "TGI", "> 100 µM"),
]

###

tested on: A549 NSCLC; test: NCI tumour cell line growth inhibition, 48 h
Some compounds, each annotated with its measured TGI.

# compound, target-under-test, TGI
records = [
    ("CO[C@H]1[C@@H](O)[C@@H](C)O[C@@H](O[C@H]2CC[C@@]3(C)[C@H](CC[C@@H]4[C@@H]3CC[C@]3(C)[C@@H](C5=CC(=O)OC5)[C@@H](OC(C)=O)C[C@]43O)C2)[C@@H]1O", "A549 NSCLC", "0.0241 µM"),
    ("N#CSc1nc[nH]c1C(N)=O", "A549 NSCLC", "> 100 µM"),
    ("CC(=O)Oc1ccccc1C(=O)N=C1[Se]CCCN1C(=O)c1ccccc1OC(C)=O", "A549 NSCLC", "3.69 µM"),
    ("O=C1c2cc3c(cc2CC12Cc1cc4c(cc1C2=O)CCC4)CCCC3 (centres undefined)", "A549 NSCLC", "> 100 µM"),
    ("N#CC1(C2SCCS2=O)C2=C(C(=O)c3ccccc3C2=O)N2CCCC21 (centres undefined)", "A549 NSCLC", "6.26 µM"),
    ("O=C(O)c1cccc(OCCO)c1", "A549 NSCLC", "> 100 µM"),
    ("CC(=O)Oc1ccccc1-c1cc2ccccc2oc1=O", "A549 NSCLC", "> 100 µM"),
    ("CCN(CC)CCn1nc(N)c2nc3cc(Cl)ccc3nc21", "A549 NSCLC", "> 100 µM"),
    ("N#C/C(=C\\c1ccc(O)c(O)c1)C(N)=O", "A549 NSCLC", "> 100 µM"),
    ("CCN(CC)CC(C)(C)C(=O)/C=C/c1ccc(Cl)c(Cl)c1", "A549 NSCLC", "4.88 µM"),
    ("COc1cc2c(cc1OCc1ccccc1)CNCC2", "A549 NSCLC", "> 100 µM"),
    ("O=C(O)c1ccccc1-c1ccccc1C(=O)Nc1ccc2c(c1)Cc1cc(F)ccc1-2", "A549 NSCLC", "85.9 µM"),
    ("COc1cccc(OC)c1/C=C1\\OC(=O)c2cccc(OC)c21", "A549 NSCLC", "> 100 µM"),
    ("Cc1ccc(N(CSc2ccc(Cl)cc2)CSc2ccc(Cl)cc2)cc1", "A549 NSCLC", "> 100 µM"),
    ("O=C(CCCN1CC=C(n2c(=O)[nH]c3ccccc32)CC1)c1ccc(F)cc1", "A549 NSCLC", "> 100 µM"),
    ("COc1cc(NC(C)CCCN)c2nccc(C)c2c1OC (centres undefined)", "A549 NSCLC", "58.5 µM"),
    ("O=C(c1ccccc1)c1c(-c2ccccc2)[nH]n(-c2ccc([N+](=O)[O-])cc2)c(=O)c1=O", "A549 NSCLC", "> 100 µM"),
    ("CCOC(=O)c1nc2c(Cl)c3ncccc3cc2[nH]c1=O", "A549 NSCLC", "> 100 µM"),
    ("CC(C)c1ccccc1S(=O)c1ccccc1C(C)(C)O (centres undefined)", "A549 NSCLC", "> 100 µM"),
    ("O=C(/C=C/c1c(O)ccc2ccccc12)c1ccc2ccccc2c1", "A549 NSCLC", "> 100 µM"),
    ("Cc1[nH]n(-c2cccc(Cl)c2)c(=O)c1/C=C1\\C=Nc2ccc(Br)cc21", "A549 NSCLC", "5.68 µM"),
    ("CNC(=S)N/N=C(C)\\C(=N/NC(=S)NC)c1ccccc1", "A549 NSCLC", "> 100 µM"),
    ("O=C(CSc1nnc(-c2ccccc2NC(=O)C(F)(F)F)c(=O)[nH]1)NC(=O)Nc1ccccc1", "A549 NSCLC", "> 100 µM"),
    ("COc1ccc(C[N+]23C(CC[C@H]2c2ccccc2)CC[C@H]3c2ccccc2)cc1 (some centres undefined)", "A549 NSCLC", "> 100 µM"),
]

The reported numbers originate from PubChem BioAssay (NCI).
